# study system: HSA (Homo sapiens)
# Sequence (P02768 25-609): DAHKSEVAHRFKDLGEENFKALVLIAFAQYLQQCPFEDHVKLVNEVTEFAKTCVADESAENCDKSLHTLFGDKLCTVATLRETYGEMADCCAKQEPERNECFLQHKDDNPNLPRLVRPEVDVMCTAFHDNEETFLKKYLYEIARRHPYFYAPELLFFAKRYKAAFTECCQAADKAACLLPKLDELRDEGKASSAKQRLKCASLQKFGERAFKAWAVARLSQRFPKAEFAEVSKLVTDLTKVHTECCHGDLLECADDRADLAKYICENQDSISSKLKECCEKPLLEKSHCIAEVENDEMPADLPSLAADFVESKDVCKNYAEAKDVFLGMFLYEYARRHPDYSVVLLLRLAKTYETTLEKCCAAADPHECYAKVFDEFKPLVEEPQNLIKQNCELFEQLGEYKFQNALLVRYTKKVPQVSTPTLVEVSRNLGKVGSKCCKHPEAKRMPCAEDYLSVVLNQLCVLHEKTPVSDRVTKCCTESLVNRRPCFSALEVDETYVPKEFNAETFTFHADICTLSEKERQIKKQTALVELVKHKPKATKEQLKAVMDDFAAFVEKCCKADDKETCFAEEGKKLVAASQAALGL
# protocol text: chromatographic assay of HSA binding
# condition description: chromatographic HSA binding assay (Hage)
Measured Kd, listed per entry.
readout type: Kd (µM)

molecule_smiles=N[C@@H](CCCCNC(=O)CCCc1ccc(I)cc1)C(=O)O measured_value=7
molecule_smiles=N[C@@H](CCCCNC(=O)CCc1ccc(I)cc1)C(=O)O measured_value=204
